- assay_overview: Microsomal metabolic stability, mouse liver microsomes
- condition_parameters: liver microsomes (pooled), pH 7.4
endpoint: half-life at 3 µM (h)
Only the number, expressed in h, is required.

O=C([O-])c1cc(OC[C@H](COS(=O)(=O)[O-])OS(=O)(=O)[O-])ccc1OCC(COS(=O)(=O)[O-])OS(=O)(=O)[O-].[Na+].[Na+].[Na+].[Na+].[Na+] (mixture of isomers) ... 8.03

half-life at 3 µM for COC(=O)c1cc(OC[C@@H](COS(=O)(=O)[O-])OS(=O)(=O)[O-])ccc1OCC(COS(=O)(=O)[O-])OS(=O)(=O)[O-].[Na+].[Na+].[Na+].[Na+] (mixture of isomers) is 30.7

Where do these numbers come from? They come from paper PMC8152814.
